assay: qHTS assay to identify small molecule antagonists of the androgen receptor (AR) signaling pathway using the MDA cell line in the presence of 0.5 nM R1881 - cell viability counter screen (AID 1259242); conditions: MDA-kb2 viability, CellTiter-Fluor protease fluorescence, 16 h; series mostly up to 92.4 µM; further: nearly all actives have a fitted effect of over 45% in size
Inconclusive results are not listed. The source made the active and inactive calls. The call rests on the fitted dose curve; in most records, active means well fitted cell-killing curve with a large enough effect in the repeat runs; inconclusive means weak or mixed curves, or effect the other way; inactive means flat fitted curve, though single readings scatter.
Respond only with the outcome that fits, drawn from active, inactive

Status in this test for "CN(C/C=C/C#CC(C)(C)C)Cc1cccc2ccccc12" ?
inactive

Status in this test for Cc1nc(-c2ccc3c(c2)CCN(CCC2CCC(NC(=O)/C=C/c4ccc(F)cc4)CC2)CC3)no1 (centres undefined) ?
inactive

Status in this test for "N=C1N=C(N)c2ccccc21" ?
inactive

Status in this test for "COc1ccc(C(=O)/C(Br)=C\C(=O)O)cc1" ?
inactive

Status in this test for "CCCCCCCC/C=C\CCCCCCCCOCCO" ?
active

Status in this test for "CCCCCCCCCCCC[N+](C)(C)CCCCCCCCCCCC" ?
active

Status in this test for "CCCCCCCCCCC=O" ?
inactive

Status in this test for "O=C(c1ccc(O)cc1O)c1ccc(O)cc1O" ?
inactive

Status in this test for "ON=C1CCCC1" ?
inactive

Status in this test for CCCCCCCCCCCCCC[P+](CCCC)(CCCC)CCCC (tested in a mixture with another compound) ?
active

Status in this test for "Nc1cc(C(F)(F)F)ccc1S" ?
inactive

Status in this test for c1cc(C(c2ccc(OCC3CO3)cc2)c2ccc(OCC3CO3)cc2)ccc1OCC1CO1 (centres undefined) ?
inactive

Status in this test for "CC(C)CCCCCCCCCCCCCCC(=O)O" ?
inactive

Status in this test for "O=C(NO)C1(NS(=O)(=O)c2ccc(Oc3ccc(F)cc3)cc2)CCOCC1" ?
inactive

Status in this test for "CCOc1ccc2nc3cc(N)ccc3c(N)c2c1" ?
inactive

Status in this test for CC(=O)OCC(C)OC(C)=O (centres undefined) ?
inactive

Status in this test for CCCC1O[C@@H]2C[C@H]3[C@@H]4CCC5=CC(=O)C=C[C@]5(C)[C@H]4[C@@H](O)C[C@]3(C)[C@]2(C(=O)CO)O1 (some centres undefined) ?
inactive

Status in this test for "COC(=O)c1cc(Cl)ccc1OC" ?
inactive

Status in this test for "CCCCCCCCOC(=O)c1ccc(O)cc1" ?
inactive

Status in this test for "CCN(C(=O)N(CC)c1ccccc1)c1ccccc1" ?
inactive

Status in this test for CCCCC(CC)CN=C(N)NC(N)=NCCCCCCN=C(N)NC(N)=NCC(CC)CCCC (centres undefined) ?
active

Status in this test for "CCCC(=O)OC[C@@H](OC(=O)CCC)[C@@H](OC(=O)CCC)[C@H](Cn1c2nc(=O)[nH]c(=O)c-2nc2cc(C)c(C)cc21)OC(=O)CCC" ?
inactive

Status in this test for "C[n+]1cc2c3c(ccc2c2ccc4cc5c(cc4c21)OCO5)OCO3" ?
active

Status in this test for Clc1ccc(C(Cn2ccnc2)OCc2ccc(Sc3ccccc3)cc2)c(Cl)c1 (centres undefined) ?
inactive
